# System: MDA-MB-231 breast
# assay_remarks: NCI tumour cell line growth inhibition, 384-well format; in the data active = GI50 below about 0.43 µM; inactive = the rest
Choose the fitting class; nothing outside active, inactive is accepted.

Completed entries (count: 3):
                        structure_as_smiles      target_system  class_label
0  Cc1nnc(C[C@@H]2C=C(c3ccc(Cl)cc3)c3ccccc3-n3c(C)nnc32)o1  MDA-MB-231 breast       active
1  Cc1cc(F)c(C(=O)Nc2cccc(-c3nncn3C(C)C)n2)cc1-n1cnc(C2CC2)c1  MDA-MB-231 breast     inactive
2  C=CC(=O)N[C@@H]1CN(c2nc(Nc3cn(C)nc3OC)c3ncn(C)c3n2)C[C@H]1F  MDA-MB-231 breast     inactive

Below: the item to evaluate.
State the result this test recorded for C[C@@H](Nc1nc(N[C@H](C)C(F)(F)F)nc(-c2cccc(Cl)n2)n1)C(F)(F)F .
inactive
